pIC50: −log10 of the molar value.
Sodium-dependent serotonin transporter (Rattus norvegicus) data, read-out pIC50
Sequence (P31652 whole entry): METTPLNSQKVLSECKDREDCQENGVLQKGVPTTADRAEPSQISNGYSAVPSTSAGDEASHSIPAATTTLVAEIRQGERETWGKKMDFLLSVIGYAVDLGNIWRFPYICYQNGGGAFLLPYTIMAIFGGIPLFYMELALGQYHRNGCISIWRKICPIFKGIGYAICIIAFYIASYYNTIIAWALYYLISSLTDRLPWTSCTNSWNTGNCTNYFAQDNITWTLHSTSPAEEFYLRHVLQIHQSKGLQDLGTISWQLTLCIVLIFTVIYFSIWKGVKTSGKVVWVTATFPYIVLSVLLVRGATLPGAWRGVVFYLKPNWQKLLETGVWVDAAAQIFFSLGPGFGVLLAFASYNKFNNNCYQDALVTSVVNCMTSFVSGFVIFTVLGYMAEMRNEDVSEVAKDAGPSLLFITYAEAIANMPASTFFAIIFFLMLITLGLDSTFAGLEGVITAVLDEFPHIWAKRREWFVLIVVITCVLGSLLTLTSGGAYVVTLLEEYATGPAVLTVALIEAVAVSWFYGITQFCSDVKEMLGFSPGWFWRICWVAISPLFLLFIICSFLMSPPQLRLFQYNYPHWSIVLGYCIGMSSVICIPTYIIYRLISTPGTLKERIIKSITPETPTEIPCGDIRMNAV
endpoint_name: pIC50

• COC(=O)C1[C@@H](c2ccc(-c3ccccc3)cc2)CC2CC[C@H]1N2C (some centres not stated) = 7.02
• CCCc1ccc([C@H]2CC3CC[C@H](C2C(=O)OC)N3C)cc1 (some centres not stated) = 7.15
• COC(=O)C1[C@@H](c2ccc(C#CCc3ccccc3)cc2)CC2CC[C@H]1N2C (some centres not stated) = 7.88
• COC(=O)C1[C@@H](c2ccc(CCCc3ccccc3)cc2)CC2CC[C@H]1N2C (some centres not stated) = 5.91
• COC(=O)C1=C(c2ccc3ccccc3c2)CC2CCC1N2C (configuration not stated) = 6.46
• COC(=O)C1[C@@H](c2ccc(CCc3ccccc3)cc2)CC2CC[C@H]1N2C (some centres not stated) = 6.63
• C=C(c1ccccc1)c1ccc([C@H]2CC3CC[C@H](C2C(=O)OC)N3C)cc1 (some centres not stated) = 5.57
